Tested on: K562 (chronic myelogenous leukaemia)
protocol-notes: Effect on tumor cell lines, viable cell count by trypan blue exclusion (Latham et al.): K562
Type: cell-based
condition-label: K562 chronic myelogenous leukaemia cells, viable cell count 96 hours after treatment
Procedure: The effect of the compounds of the invention on tumor cells was determined by the assay described by Latham et al., Oncogene 12:827-837 (1996). […] The total number of viable cells was determined 96 hours later by trypsinizing the wells and counting the number of viable cells, as determined by trypan blue exclusion, using a hemacytometer. […]
metric-name: IC50

[
  {
    "molecule": "N#C/C(=C\\c1c[nH]c2ccc(Cl)cc12)S(=O)(=O)Cc1ccc(Cl)cc1Cl [Example 91]",
    "IC50": "10 to 25 µM"
  },
  {
    "molecule": "Cc1ccsc1/C=C(\\C#N)S(=O)(=O)Cc1ccc(Cl)cc1 [Example 120]",
    "IC50": "25 to 50 µM"
  },
  {
    "molecule": "N#C/C(=C\\c1c[nH]c2ccc(Cl)cc12)S(=O)(=O)Cc1ccc(Cl)cc1Cl [Example 75]",
    "IC50": "50 to 100 µM"
  },
  {
    "molecule": "CSc1ccc(/C=C(\\C#N)S(=O)(=O)Nc2ccc(C)cc2C)cc1 [Example 276]",
    "IC50": "> 100 µM"
  },
  {
    "molecule": "N#C/C(=C\\c1ccc(-c2ccccc2)cc1)S(=O)(=O)Cc1ccccc1 [Example 138]",
    "IC50": "> 100 µM"
  }
]

Now take the following molecule into account.
Input line: Read the entry Cc1ccsc1/C=C(\C#N)S(=O)(=O)Cc1ccc(Cl)cc1Cl [Example 102] and write its reported IC50.
Output line: 50 to 100 µM
